Test: Growth inhibition of human HOP92 cells after 48 hrs by SRB assay
Format: functional
Details: HOP-92, 48 h
// boundary case: GI50 equal to 2000 nM maps to criterion not met; strictly smaller maps to criterion met

Sample answers from the record:
> print(dat)
                           substance.smiles                cat
1  COc1cc(C(=O)/C=C/c2c(-c3cccs3)nc3ccccn23)cc(OC)c1OC      criterion met
2  COc1cc(C(=O)/C=C/c2c(C(F)(F)F)nc3ccccn23)cc(OC)c1OC  criterion not met
3  COc1ccc(-c2nc3ncccn3c2/C=C/C(=O)c2cc(OC)c(OC)c(OC)c2)cc1      criterion met

Identify whether the molecule "COc1cc(C(=O)/C=C/c2c(-c3ccc(F)cc3)nc3ncccn23)cc(OC)c1OC" records GI50 below 2000 nM.
criterion met

Identify whether the molecule "COc1ccc(-c2nc3ccccn3c2/C=C/C(=O)c2cc(OC)c(OC)c(OC)c2)cc1" records GI50 below 2000 nM.
criterion not met
